# Assay Protocol: self-splicing fitness, log relative to wild type (ln ratio); higher = more splicing; Tetrahymena group I intron in knt gene, E. coli kanamycin selection, DiMSum; sequences stand for … in CUCUCU…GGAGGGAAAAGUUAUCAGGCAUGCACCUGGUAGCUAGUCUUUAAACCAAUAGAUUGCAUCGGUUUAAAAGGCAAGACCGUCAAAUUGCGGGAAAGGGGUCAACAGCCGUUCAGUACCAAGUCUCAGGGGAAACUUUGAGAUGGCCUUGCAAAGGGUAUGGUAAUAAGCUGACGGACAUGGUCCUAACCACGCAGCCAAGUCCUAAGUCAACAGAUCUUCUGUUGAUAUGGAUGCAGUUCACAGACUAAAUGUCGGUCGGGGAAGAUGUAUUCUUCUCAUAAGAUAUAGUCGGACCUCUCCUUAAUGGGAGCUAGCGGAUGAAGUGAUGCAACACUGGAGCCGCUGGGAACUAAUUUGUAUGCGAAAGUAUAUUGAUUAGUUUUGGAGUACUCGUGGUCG;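 further: selection with 25 µg/mL kanamycin versus none on LB agar overnight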
# Condition Info: 37 °C
Measured Metric: self-splicing fitness (ln)
# answer = number (no unit)

UACUAGCAAUAUUACGCGAA : -1.18
GGACAGCAAUAUUACGCCUA : -0.478
AGCCAGCAAUAUUACGGUGU : -2.51

Prompt: Please look up its self-splicing fitness (ln): GGCCAGCAAUAUUACGGAAA
Completion: -0.606

Prompt: Please look up its self-splicing fitness (ln): GUCAAGCAAUAUUACGUGCC
Completion: -2.73

Prompt: Please look up its self-splicing fitness (ln): UGGGAGCAAUAUUACGUUUA
Completion: -2.92

Prompt: Please look up its self-splicing fitness (ln): CCGUAGCAAUAUUACGGUCA
Completion: -2.27

Prompt: Please look up its self-splicing fitness (ln): AAUGAGCAAUAUUACGAGGG
Completion: -1.98
